Assay: Pharmacokinetics of oxazolidinones after single oral dose, plasma LC/MS
Type: in vivo, BALB/c mice
Conditions: female, BALB/c, mouse, in vivo, po, 100 mg/kg, AUC0-24 hr
experimentalReadout: AUC(0-t) (µg·h/mL)
Respond with the bare value in µg·h/mL.

Q: Tell us which AUC(0-t) value is on record for CC(=O)NC[C@H]1CN(c2ccc(N3CCOCC3)c(F)c2)C(=O)O1 [LZD]
A: 244

----------
Assay: Pharmacokinetics of oxazolidinones after single oral dose, plasma LC/MS
Format: in vivo, BALB/c mice
Conditions: female, BALB/c, mouse, in vivo, 10 mg/kg, total drug AUC0-24 h
experimentalReadout: AUC(0-t) (ng·h/mL)
Respond with the bare value in ng·h/mL.

Q: Tell us which AUC(0-t) value is on record for Cn1nnc(-c2ccc(-c3ccc(N4C[C@H](CO)OC4=O)cc3F)cn2)n1
A: 40000

----------
Test: Pharmacokinetics of oxazolidinones after single oral dose, plasma LC/MS
Assay type: in vivo, BALB/c mice
Details: female, BALB/c, mouse, in vivo, po, 20 mg/kg, AUC0-24 hr
Method: Pharmacokinetics of oxazolidinones. Uninfected female BALB/c mice weighing approximately 20 g received single doses of SZD (50 mg/kg), LZD (100 mg/kg), TZD (10 or 20 mg/kg) or AZD (50 or 200 mg/kg). […] Plasma drug concentrations were quantified by a validated LC/MS method performed at AstraZeneca (for AZD only) (14) or Rutgers New Jersey Medical School (for other oxazolidinones). […] The lower limit of quantification for all oxazolidinones was 5 mg/ml. […]
experimentalReadout: AUC(0-t)

Q: Tell us which AUC(0-t) value is on record for Cn1nnc(-c2ccc(-c3ccc(N4C[C@H](CO)OC4=O)cc3F)cn2)n1 [TZD, tedizolid]
A: 77700 ng·h/mL

----------
Assay: Pharmacokinetics of oxazolidinones after single oral dose, plasma LC/MS
Type: in vivo, BALB/c mice
Details: female, BALB/c, mouse, in vivo; single oral dose 50 mg/kg; mean; plasma; read-out: t1/2 (converted)
Listing of entries alongside the reported half-life.
Respond with the bare value in h.

Q: Tell us which half-life value is on record for O=C([C@@H](O)CO)N1CC=C(c2c(F)cc(N3C[C@H](COc4ccon4)OC3=O)cc2F)CC1
A: 2.4

Q: Tell us which half-life value is on record for CC(=O)NC[C@H]1CN(c2ccc(N3CCSCC3)c(F)c2)C(=O)O1
A: 2.8

----------
Assay: Pharmacokinetics of oxazolidinones after single oral dose, plasma LC/MS
Assay type: in vivo, BALB/c mice
Settings: female, BALB/c, mouse, in vivo, po, 10 mg/kg, AUC0-24 hr
Protocol: Pharmacokinetics of oxazolidinones. Uninfected female BALB/c mice weighing approximately 20 g received single doses of SZD (50 mg/kg), LZD (100 mg/kg), TZD (10 or 20 mg/kg) or AZD (50 or 200 mg/kg). […] Plasma drug concentrations were quantified by a validated LC/MS method performed at AstraZeneca (for AZD only) (14) or Rutgers New Jersey Medical School (for other oxazolidinones). […] The lower limit of quantification for all oxazolidinones was 5 mg/ml. […]
experimentalReadout: AUC(0-t) (ng·h/mL)
Respond with the bare value in ng·h/mL.

Q: Tell us which AUC(0-t) value is on record for Cn1nnc(-c2ccc(-c3ccc(N4C[C@H](CO)OC4=O)cc3F)cn2)n1 [TZD, tedizolid]
A: 40400

----------
Experiment: Pharmacokinetics of oxazolidinones after single oral dose, plasma LC/MS
Type: in vivo, BALB/c mice
Settings: female, BALB/c, mouse, in vivo, po, 20 mg/kg
experimentalReadout: Cmax (ng/mL)
Respond with the bare value in ng/mL.

Q: Tell us which Cmax value is on record for Cn1nnc(-c2ccc(-c3ccc(N4C[C@H](CO)OC4=O)cc3F)cn2)n1
A: 11400

----------
Assay: Pharmacokinetics of oxazolidinones after single oral dose, plasma LC/MS
Assay type: in vivo, BALB/c mice
Conditions: female, BALB/c, mouse, in vivo, po, 100 mg/kg, AUC0-24 h
experimentalReadout: AUC(0-t) (µg·h/mL)
Respond with the bare value in µg·h/mL.

Q: Tell us which AUC(0-t) value is on record for CC(=O)NC[C@H]1CN(c2ccc(N3CCOCC3)c(F)c2)C(=O)O1
A: 244

----------
Test: Pharmacokinetics of oxazolidinones after single oral dose, plasma LC/MS
Format: in vivo, BALB/c mice
Settings: female, BALB/c, mouse, in vivo; single oral dose 200 mg/kg; mean; plasma; read-out: Tmax
Protocol: Pharmacokinetics of oxazolidinones. Uninfected female BALB/c mice weighing approximately 20 g received single doses of SZD (50 mg/kg), LZD (100 mg/kg), TZD (10 or 20 mg/kg) or AZD (50 or 200 mg/kg). […] Plasma drug concentrations were quantified by a validated LC/MS method performed at AstraZeneca (for AZD only) (14) or Rutgers New Jersey Medical School (for other oxazolidinones). […] The lower limit of quantification for all oxazolidinones was 5 mg/ml. […]
experimentalReadout: Tmax (min)
Respond with the bare value in min.

Q: Tell us which Tmax value is on record for O=C([C@@H](O)CO)N1CC=C(c2c(F)cc(N3C[C@H](COc4ccon4)OC3=O)cc2F)CC1 [AZD]
A: 42

----------
Assay: Pharmacokinetics of oxazolidinones after single oral dose, plasma LC/MS
Assay type: in vivo, BALB/c mice
Details: female, BALB/c, mouse, in vivo, po, 10 mg/kg
experimentalReadout: Cmax
Number plus unit, in that order.

Q: Tell us which Cmax value is on record for Cn1nnc(-c2ccc(-c3ccc(N4C[C@H](CO)OC4=O)cc3F)cn2)n1
A: 6420 ng/mL

----------
Assay: Pharmacokinetics of oxazolidinones after single oral dose, plasma LC/MS
Type: in vivo, BALB/c mice
Conditions: female, BALB/c, mouse, in vivo, po, 10 mg/kg
experimentalReadout: half-life (h)
Respond with the bare value in h.

Q: Tell us which half-life value is on record for Cn1nnc(-c2ccc(-c3ccc(N4C[C@H](CO)OC4=O)cc3F)cn2)n1
A: 3
